- Subject Of Test: Kv1.3 potassium channel (Homo sapiens)
- Construct: expressed in transfected cells
- Sequence (P22001 whole entry): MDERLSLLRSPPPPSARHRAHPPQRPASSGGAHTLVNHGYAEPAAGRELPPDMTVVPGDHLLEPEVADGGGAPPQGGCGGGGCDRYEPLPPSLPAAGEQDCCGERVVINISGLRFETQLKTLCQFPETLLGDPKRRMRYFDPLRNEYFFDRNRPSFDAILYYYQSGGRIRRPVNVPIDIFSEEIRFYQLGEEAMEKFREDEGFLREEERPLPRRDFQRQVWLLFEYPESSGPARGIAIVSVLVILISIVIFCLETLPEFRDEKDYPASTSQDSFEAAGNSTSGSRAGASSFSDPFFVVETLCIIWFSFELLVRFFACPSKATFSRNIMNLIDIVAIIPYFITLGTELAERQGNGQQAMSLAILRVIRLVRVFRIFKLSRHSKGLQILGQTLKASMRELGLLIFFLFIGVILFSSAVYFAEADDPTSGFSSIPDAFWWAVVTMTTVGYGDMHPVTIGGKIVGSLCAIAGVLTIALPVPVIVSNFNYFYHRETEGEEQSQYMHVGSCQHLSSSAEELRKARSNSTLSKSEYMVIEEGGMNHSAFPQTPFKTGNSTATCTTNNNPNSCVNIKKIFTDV
- Assay Text: Kv1.3 potassium channel blocker activity, automated whole-cell patch clamp (Patchliner)
- Format: cell-based
- Measurement Conditions: Kv1.3 potassium channel, whole-cell patch clamp
Measured Quantity: IC50

query: Report IC50 for NC(=O)[C@H]1OC(=O)N2C[C@@H](c3c(O)ccc(Cl)c3Cl)C[C@@H]12 (single isomer, unassigned) [Compound 287] please.
result: < 1000 nM

query: Next entry: O=C(NC[C@@H]1OC(=O)N2C[C@@H](c3c(O)ccc(Cl)c3Cl)C[C@@H]12)C1CNC1 (single isomer, unassigned) [Compound 277]
result: < 1000 nM

query: Next entry: O=C1C[C@H](c2cn[nH]c2)C[C@@H]2C[C@H](c3c(O)ccc(Cl)c3Cl)CN12 (single isomer, unassigned) [Compound 216]
result: < 1000 nM

query: Next entry: C[C@@H]1[C@@H]2C[C@H](c3c(O)ccc(Cl)c3Cl)CN2C(=O)CN1C(=O)CO (single isomer, unassigned; isomer 1) [Compound 87]
result: < 1000 nM

query: Next entry: O=C1CN(C2CNC2)C[C@@H]2C[C@H](c3c(O)ccc(Cl)c3Cl)CN12 [Compound 129]
result: < 1000 nM

query: Next entry: O=C1CN(C[C@@H](O)CO)C[C@@H]2C[C@H](c3c(O)ccc(Cl)c3Cl)CN12 (single isomer, unassigned) [Compound 114]
result: < 1000 nM

query: Next entry: CNC(=O)C1CC(=O)N2C[C@@H](c3c(O)ccc(Cl)c3Cl)C[C@H]2C1 (stereo partly shown) [Compound 232]
result: < 1000 nM
